biological target: CYP 3A4 (Homo sapiens); construct: NADPH regenerating system; experiment: Kinetics of fluorogenic substrates with CYP 3A4; format: biochemical; conditions: CYP 3A4
Sequence (P08684 whole entry): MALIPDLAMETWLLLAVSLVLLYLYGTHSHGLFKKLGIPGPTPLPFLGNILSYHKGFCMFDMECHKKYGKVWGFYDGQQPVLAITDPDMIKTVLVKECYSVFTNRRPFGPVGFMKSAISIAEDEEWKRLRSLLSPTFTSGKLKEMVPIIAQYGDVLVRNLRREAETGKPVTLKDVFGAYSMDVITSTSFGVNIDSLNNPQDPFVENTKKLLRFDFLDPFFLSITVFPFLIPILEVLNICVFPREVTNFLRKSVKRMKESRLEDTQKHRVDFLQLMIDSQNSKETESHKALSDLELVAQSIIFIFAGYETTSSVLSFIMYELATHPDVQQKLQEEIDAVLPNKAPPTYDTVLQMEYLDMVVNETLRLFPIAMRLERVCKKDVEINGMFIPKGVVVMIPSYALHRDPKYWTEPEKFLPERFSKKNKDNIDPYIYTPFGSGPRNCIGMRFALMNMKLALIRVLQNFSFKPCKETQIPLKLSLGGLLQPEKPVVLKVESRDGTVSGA

- MOL SMILES: "O=c1cc(C(F)(F)F)c2ccc(OCOCc3ccccc3)cc2o1"
  type of kinetics: "Michaelis-"
- MOL SMILES: "CCOCOc1ccc2nc3ccc(=O)cc-3oc2c1"
  type of kinetics: "Michaelis-"

* * *

molecular target: CYP 2D6 (Homo sapiens, UniProt P10635); experiment: Kinetics of fluorogenic substrates with CYP 2D6; assay type: biochemical; settings: CYP 2D6, substrate 10 uM
Sequence (P10635 whole entry): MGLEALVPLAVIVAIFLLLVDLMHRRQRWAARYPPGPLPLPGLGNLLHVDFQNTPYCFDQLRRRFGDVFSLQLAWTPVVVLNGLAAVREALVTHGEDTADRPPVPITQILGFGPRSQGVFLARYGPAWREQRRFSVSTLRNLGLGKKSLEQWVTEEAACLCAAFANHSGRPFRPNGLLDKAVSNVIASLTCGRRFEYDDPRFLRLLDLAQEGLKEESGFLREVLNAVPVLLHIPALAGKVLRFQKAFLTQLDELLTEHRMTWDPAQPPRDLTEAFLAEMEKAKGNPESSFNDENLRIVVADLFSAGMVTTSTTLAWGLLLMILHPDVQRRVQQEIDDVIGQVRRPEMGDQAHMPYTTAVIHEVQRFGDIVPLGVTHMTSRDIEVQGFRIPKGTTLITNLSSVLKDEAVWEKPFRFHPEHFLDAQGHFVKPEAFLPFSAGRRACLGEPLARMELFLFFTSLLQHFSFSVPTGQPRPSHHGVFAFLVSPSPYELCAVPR
TEST READOUT: v (10 uM), turnover rate at 10 μM (min⁻¹)

Solved cases (2 shown):
- COMPOUND: "COc1ccc2c(C(F)(F)F)cc(=O)oc2c1 [MFC, 7-Methoxy-4-trifluoromethylcoumarin, reference compound]"
  TESTED SYSTEM: "CYP 2D6 (Homo sapiens, UniProt P10635)"
  TEST READOUT: "v (10 uM), turnover rate at 10 μM"
  RECORDED VALUE: 0.10
- COMPOUND: "COc1ccc(COc2ccc3c(C(F)(F)F)cc(=O)oc3c2)cc1 [MOBFC]"
  TESTED SYSTEM: "CYP 2D6 (Homo sapiens, UniProt P10635)"
  TEST READOUT: "v (10 uM), turnover rate at 10 μM"
  RECORDED VALUE: 0.49

(I) COCOc1ccc2nc3ccc(=O)cc-3oc2c1 [MOMR]
(II) CC(C)Oc1ccc2cc(C#N)c(=O)oc2c1 [IPCC]
Could you please tell me which of these two has the higher v (10 uM), turnover rate at 10 μM: I or II ? Field: selected label. Fill in the label of the entry you choose. I
(I: 0.2146 min⁻¹, II: 0.0378 min⁻¹)

* * *

molecular target: CYP 2C19 (Homo sapiens); assay: Kinetics of fluorogenic substrates with CYP 2C19; type: biochemical; conditions: CYP 2C19
Sequence (P33261 whole entry): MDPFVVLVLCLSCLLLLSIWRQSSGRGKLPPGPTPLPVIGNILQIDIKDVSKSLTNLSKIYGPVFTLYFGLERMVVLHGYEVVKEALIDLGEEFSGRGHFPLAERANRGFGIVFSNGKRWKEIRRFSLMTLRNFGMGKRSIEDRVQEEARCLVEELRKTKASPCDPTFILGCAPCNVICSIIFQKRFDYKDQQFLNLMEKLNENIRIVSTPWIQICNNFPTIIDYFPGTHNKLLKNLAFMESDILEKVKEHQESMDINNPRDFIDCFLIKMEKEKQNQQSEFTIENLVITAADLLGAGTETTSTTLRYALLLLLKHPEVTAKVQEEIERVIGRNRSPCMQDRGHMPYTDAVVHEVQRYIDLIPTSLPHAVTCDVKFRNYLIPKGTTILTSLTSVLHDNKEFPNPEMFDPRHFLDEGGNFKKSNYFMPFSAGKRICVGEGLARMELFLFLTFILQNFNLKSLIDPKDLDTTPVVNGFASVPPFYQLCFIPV
TEST READOUT: kcat/Km (M⁻¹ s⁻¹)

- COMPOUND: "CCOc1ccc2cc(C#N)c(=O)oc2c1 [3CEC, 3-Cyano-7-ethoxycoumarin, reference compound]"
  kcat/Km, M⁻¹ s⁻¹: 671
- COMPOUND: "CCCCCCCCOCOc1ccc2cc(C#N)c(=O)oc2c1"
  kcat/Km, M⁻¹ s⁻¹: 4106

(A) CCCCCCCCOCOc1ccc2nc3ccc(=O)cc-3oc2c1
(B) CCN(CC)Cc1cc(=O)oc2cc(OC)ccc12
Between the entries labeled A and B , whose measured kcat/Km is lower? Field: selected label. Fill in the label of the entry you choose. B

* * *

molecular target: CYP 2D6 (Homo sapiens, UniProt P10635); experiment: Kinetics of fluorogenic substrates with CYP 2D6; assay type: biochemical; details: CYP 2D6
TEST READOUT: kcat (s⁻¹)

- COMPOUND: "COCOc1ccc2nc3ccc(=O)cc-3oc2c1"
  TESTED SYSTEM: "CYP 2D6 (Homo sapiens, UniProt P10635)"
  UNIT SPEC: "s⁻¹"
  kcat: 0.00567

(A) COc1ccc2c(C(F)(F)F)cc(=O)oc2c1 [MFC, 7-Methoxy-4-trifluoromethylcoumarin, reference compound]
(B) COc1ccc(COc2ccc3c(C(F)(F)F)cc(=O)oc3c2)cc1
(C) CC(C)Oc1ccc2cc(C#N)c(=O)oc2c1
# ascending order, key=kcat Would you mind listing the labels in the order asked for? C, A, B
